The reported measurements were obtained from the supplement of paper PMC10567573.

B1: FBF1 (parent)
chain: LQRASILDMRRDHEEQLQRLKLLK

variants of: B1; assay: protein stability index of a GFP-peptide fusion (GPS, HEK-293T) (PSI 1-6); higher = more stable; conditions: c terminus: a fixed tail appended;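 also: lentivirally expressed fusions sorted by FACS into six bins by GFP to DsRed ratio, PSI derived from sequencing read proportions per bin multiplied by bin number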
Attribute: protein stability index

Example cases with answers are listed next.
# input variant: LQRASILDMRRDHEEQLQRIKLLK [L20I] ; wanted: its protein stability index
3.3

Name the reported protein stability index value associated with the variant LQRASILDMRRDHEEQLQRLKMLK [L22M]
3.44

Looking for the measured protein stability index of NQRASILDMRRDHEEQLQRLKLLK [L1N] , can you help?
3.64

Please report the recorded protein stability index for LQRASILDMRRDHEEQLQRLKELK [L22E] .
4.33

So what does the record say about protein stability index for LQRASWLDMRRDHEEQLQRLKLLK [I6W] ?
3.62

Record request: protein stability index value, item LQRASILDMRRDHMEQLQRLKLLK [E14M]
2.56

May I ask what protein stability index has been recorded for LQRASIPDMRRDHEEQLQRLKLLK [L7P] ?
3.98

For the variant LQRASILDMRVDHEEQLQRLKLLK [R11V] , what protein stability index is on record?
3.18

More entries:
Would you kindly share the measured protein stability index for QQRASILDMRRDHEEQLQRLKLLK [L1Q] ?
3.69

Would you mind telling me what protein stability index value was observed for LQRASILDMRHDHEEQLQRLKLLK [R11H] ?
2.88

Give the measured protein stability index of LQRASILDMRRDHEEQLQRLKLSK [L23S] .
4.42

Name the reported protein stability index value associated with the variant LQRASILDMRRDHEEQLQLLKLLK [R19L]
2.22

Look up protein stability index for this variant: LQRASILDMRRDHQEQLQRLKLLK [E14Q]
3.49
